tested target: VEGF_(8-109) (UniProt P15692)
assay comment: SPR; Biacore S200, target on Series S Sensor Chip SA, peptide flowed, single-cycle kinetics, three-fold dilution series from approximately 100 μM, 25°C, 30 μl/min, HBS-EP with 5% DMSO; steady-state equilibrium model
measured metric: pKd
One number for each entry, as −log10 of the molar value.

Exercise: Please look up its pKd: PCECFMYDILVGLASSEECKRLCWGFGQSDCRVHCG [5ji4-VEGF-5]
Key: 4.07
